TESTED ON: HIV-1 Env of pseudovirus SC422661.8 (HIV-1)
ASSAY SUMMARY: cell-based or functional assay
Hi, to clarify the labels: Yes covers neutralization IC80 from 4 µg/mL upward, No covers anything below 4 µg/mL.

# BINDER, CATEGORY LABEL
records = [
    ("MS-74 (antibody, V domains shown) VH: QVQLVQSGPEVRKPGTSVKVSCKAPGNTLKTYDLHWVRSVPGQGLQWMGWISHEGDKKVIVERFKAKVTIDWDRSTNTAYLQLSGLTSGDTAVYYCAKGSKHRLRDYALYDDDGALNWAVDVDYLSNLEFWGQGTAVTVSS VL: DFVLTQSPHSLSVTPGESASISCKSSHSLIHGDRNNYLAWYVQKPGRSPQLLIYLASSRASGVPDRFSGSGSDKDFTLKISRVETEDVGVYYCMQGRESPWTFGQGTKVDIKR", "No"),
    ("MS-76 (antibody, V domains shown) VH: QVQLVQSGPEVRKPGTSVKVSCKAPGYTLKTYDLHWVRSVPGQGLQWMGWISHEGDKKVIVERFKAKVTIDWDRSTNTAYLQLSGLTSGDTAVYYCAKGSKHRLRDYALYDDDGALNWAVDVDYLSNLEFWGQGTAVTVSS VL: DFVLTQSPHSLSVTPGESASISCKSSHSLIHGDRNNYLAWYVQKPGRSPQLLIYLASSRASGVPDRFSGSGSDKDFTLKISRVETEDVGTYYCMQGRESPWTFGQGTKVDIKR", "Yes"),
    ("MS-82 (antibody, V domains shown) VH: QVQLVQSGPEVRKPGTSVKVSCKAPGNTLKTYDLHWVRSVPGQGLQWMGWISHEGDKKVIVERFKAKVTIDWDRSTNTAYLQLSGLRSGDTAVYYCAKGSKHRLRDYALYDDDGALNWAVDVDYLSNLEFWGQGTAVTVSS VL: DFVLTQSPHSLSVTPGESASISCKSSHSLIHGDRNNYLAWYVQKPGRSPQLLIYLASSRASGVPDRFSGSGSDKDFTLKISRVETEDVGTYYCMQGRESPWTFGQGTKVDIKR", "No"),
]

Task: Does MS-91 (antibody, V domains shown) VH: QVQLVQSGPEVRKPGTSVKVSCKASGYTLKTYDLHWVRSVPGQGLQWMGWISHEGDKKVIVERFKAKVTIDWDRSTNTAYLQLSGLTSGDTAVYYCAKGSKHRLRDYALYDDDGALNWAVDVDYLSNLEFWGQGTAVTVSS VL: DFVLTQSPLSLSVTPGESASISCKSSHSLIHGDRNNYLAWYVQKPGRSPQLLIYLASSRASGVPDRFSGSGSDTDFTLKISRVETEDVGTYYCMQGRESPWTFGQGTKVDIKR have a reported neutralization IC80 of at least 4 µg/mL?
Result: Yes

Task: Hi, just wondering whether MS-85 (antibody, V domains shown) VH: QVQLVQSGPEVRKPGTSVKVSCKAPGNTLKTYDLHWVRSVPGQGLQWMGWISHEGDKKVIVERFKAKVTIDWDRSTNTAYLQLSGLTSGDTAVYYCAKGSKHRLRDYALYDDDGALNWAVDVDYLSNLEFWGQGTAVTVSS VL: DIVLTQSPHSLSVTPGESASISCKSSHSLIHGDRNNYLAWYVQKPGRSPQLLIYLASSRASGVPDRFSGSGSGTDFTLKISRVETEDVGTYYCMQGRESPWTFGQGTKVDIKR shows neutralization IC80 of 4 µg/mL or higher.
Result: Yes

Task: Entry MS-84 (antibody, V domains shown) VH: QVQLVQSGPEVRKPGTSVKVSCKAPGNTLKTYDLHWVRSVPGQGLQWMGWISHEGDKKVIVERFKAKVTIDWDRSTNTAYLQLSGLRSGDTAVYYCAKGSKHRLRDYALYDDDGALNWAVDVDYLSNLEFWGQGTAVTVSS VL: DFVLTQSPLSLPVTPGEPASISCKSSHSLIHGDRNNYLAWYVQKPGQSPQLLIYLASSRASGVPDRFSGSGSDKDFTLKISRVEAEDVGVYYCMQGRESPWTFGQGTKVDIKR : is its neutralization IC80 no less than 4 µg/mL?
Result: No

Task: Please check the record MS-89 (antibody, V domains shown) VH: QVQLVQSGPEVRKPGTSVKVSCKAPGYTLKTYDLHWVRSVPGQGLQWMGWISHEGDKKVIVERFKAKVTITWDRSTNTAYLQLSGLTSGDTAVYYCAKGSKHRLRDYALYDDDGALNWAVDVDYLSNLEFWGQGTAVTVSS VL: DFVLTQSPLSLSVTPGESASISCKSSHSLIHGDRNNYLAWYVQKPGRSPQLLIYLASSRASGVPDRFSGSGSDKDFTLKISRVETEDVGTYYCMQGRESPWTFGQGTKVDIKR and state if its neutralization IC80 is at or above 4 µg/mL.
Result: Yes

Task: Evaluate MS-70 (antibody, V domains shown) VH: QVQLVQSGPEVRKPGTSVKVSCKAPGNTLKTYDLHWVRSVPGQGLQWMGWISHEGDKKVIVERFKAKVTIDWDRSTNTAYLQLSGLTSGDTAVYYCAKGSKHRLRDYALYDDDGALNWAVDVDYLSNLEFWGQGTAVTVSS VL: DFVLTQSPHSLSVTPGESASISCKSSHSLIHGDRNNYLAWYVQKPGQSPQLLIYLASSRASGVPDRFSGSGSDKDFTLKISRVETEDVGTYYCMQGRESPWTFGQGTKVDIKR : neutralization IC80 at minimum 4 µg/mL?
Result: No

Task: Check this binder for neutralization IC80 at or above 4 µg/mL: MS-77 (antibody, V domains shown) VH: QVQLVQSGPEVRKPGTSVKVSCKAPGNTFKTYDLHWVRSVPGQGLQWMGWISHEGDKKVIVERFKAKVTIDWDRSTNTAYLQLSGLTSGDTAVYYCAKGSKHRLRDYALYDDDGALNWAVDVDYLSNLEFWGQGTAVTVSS VL: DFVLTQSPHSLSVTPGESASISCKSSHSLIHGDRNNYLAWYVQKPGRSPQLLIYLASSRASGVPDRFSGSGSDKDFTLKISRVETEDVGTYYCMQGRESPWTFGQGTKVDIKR
Result: No
